Data provenance is patent US20150253330A1.

- Test system: MKN-45
- ASSAY REMARKS: 72 hr viability by Syto60, gastric cell line
- Assay type: cell-based
- RUN CONDITIONS: Homo sapiens, Syto60 (lower), read-out: ganetespib IC50
ENDPOINT: IC50
Be sure to follow the number with its unit.

Prompt: Return reported IC50; argument: `CC(C)c1cc(-c2nnc(O)n2-c2ccc3c(ccn3C)c2)c(O)cc1O`
Completion: 8 nM

* * *

- System: MKN45 (wt-p53, wt-KRAS, MET amplified)
- ASSAY REMARKS: 72 hr viability by CTG, gastric cancer cells
- Format: cell-based
- RUN CONDITIONS: Homo sapiens, MKN-45, viability by CTG (upper)
ENDPOINT: IC50 (nM)
Lab book: enter the figure in nM, no units written.

COMPOUND	IC50 (nM)
CC(C)c1cc(-c2nnc(O)n2-c2ccc3c(ccn3C)c2)c(O)cc1O [ganetespib]	0.5
CC(=O)O[C@@]12CO[C@@H]1C[C@H](O)[C@@]1(C)C(=O)[C@H](O)C3=C(C)[C@@H](OC(=O)[C@H](O)[C@@H](NC(=O)OC(C)(C)C)c4ccccc4)C[C@@](O)([C@@H](OC(=O)c4ccccc4)[C@H]21)C3(C)C [Docetaxel]	0.1

Prompt: Return reported IC50; argument: C=CCNC1=C2C[C@@H](C)C[C@H](OC)[C@H](O)[C@@H](C)/C=C(\C)[C@H](OC(N)=O)[C@@H](OC)/C=C\C=C(/C)C(=O)NC(=CC1=O)C2=O [17-AAG, 17-allyamino-geldanamycin]
Completion: 1
